- Test system: CCRIS mutagenicity, Ames/micronucleus/aberration tests
- assay_explanation: CCRIS mutagenicity studies
- experimental_setup: Test System: AMES SALMONELLA TYPHIMURIUM; Strain/Indicator: TA1537; Metabolic Activation: RAT LIVER S-9, PHENOBARBITAL AND BETA-NAPHTHOFLAVONE; Method: PREINCUBATION
The source made the active and inactive calls. The rule behind the calls is not given here.
measure_name: mutagenic call

Consider the worked cases shown below.
compound	result
Cc1ccc(N)c(S(=O)(=O)O)c1	inactive; negative
O.O.O.O.O.O.O=[N+]([O-])O.O=[N+]([O-])O.[Zn]	inactive; negative
CC(=O)c1ccccc1	inactive; negative
NN=C(N)N	inactive; negative

As a next step, examine the compound that follows.
Item under review: COc1ccc(C=O)cc1 . Reported mutagenic call?
inactive; negative

###

- Test system: CCRIS mutagenicity, Ames/micronucleus/aberration tests
- assay_explanation: CCRIS mutagenicity studies
- experimental_setup: Test System: AMES SALMONELLA TYPHIMURIUM; Strain/Indicator: TA100; Metabolic Activation: NONE; Method: STANDARD PLATE
Calls of active or inactive are those of the source. No rule for the calls is given here.
The reply should name one outcome from active, inactive

// param item: C#C[C@]1(O)CC[C@H]2[C@@H]3CCc4cc(OC)ccc4[C@H]3CC[C@@]21C ; yields the recorded call
inactive

// param item: CC[C@H]1OC(=O)[C@H](C)[C@@H](O[C@H]2C[C@@](C)(OC)[C@@H](O)[C@H](C)O2)[C@H](C)[C@@H](O[C@@H]2O[C@H](C)C[C@H](N(C)C)[C@H]2O)[C@](C)(O)C[C@@H](C)CN(C)[C@H](C)[C@@H](O)[C@]1(C)O ; yields the recorded call
inactive

// param item: c1ccc2c(c1)cc1ccc3cc4ccccc4c4ccc2c1c34 ; yields the recorded call
inactive

// param item: CC(C)=CCC/C(C)=C/CC/C(C)=C/C(=O)OCC(=O)[C@@]1(O)CC[C@H]2[C@@H]3CCC4=CC(=O)C=C[C@]4(C)[C@H]3[C@@H](O)C[C@@]21C ; yields the recorded call
inactive

// param item: COC(=O)CCC(=O)OC ; yields the recorded call
inactive

// param item: O=[N+]([O-])O[C@H]1CO[C@H]2[C@@H]1OC[C@H]2O[N+](=O)[O-] ; yields the recorded call
inactive

// param item: O=C1CCC(=O)N1c1ccc(Cl)c(Cl)c1 ; yields the recorded call
inactive

// param item: O=[N+]([O-])c1ccc2c(c1)cc([N+](=O)[O-])c1ccccc12 ; yields the recorded call
active

// param item: O[C@@H]1C=CC=C[C@H]1O ; yields the recorded call
inactive

// param item: CNC(=O)Oc1cccc2c1OC(C)(C)C2 ; yields the recorded call
inactive

// param item: Nc1ccc(-c2ccc(N)c([N+](=O)[O-])c2)cc1[N+](=O)[O-] ; yields the recorded call
inactive

// param item: O=[N+]([O-])c1cc2[nH]c3cc([N+](=O)[O-])c4ccccc4c3c2c2ccccc12 ; yields the recorded call
active

// param item: N#CC(Cl)Br (stereo not given) ; yields the recorded call
inactive

// param item: COc1cccc2c1C(=O)c1c(O)c3c(c(O)c1C2=O)C[C@@](O)(C(=O)CO)C[C@@H]3O[C@H]1C[C@H](N)C[C@H](C)O1 ; yields the recorded call
active

// param item: ClNc1nc(NCl)nc(NCl)n1 ; yields the recorded call
inactive

###

- System: CCRIS mutagenicity, Ames/micronucleus/aberration tests
- assay_explanation: CCRIS mutagenicity studies
- experimental_setup: Test System: AMES SALMONELLA TYPHIMURIUM; Strain/Indicator: TA98; Metabolic Activation: HAMSTER, LIVER, S-9, AROCLOR 1254 (10%); Method: STANDARD PLATE
- Excerpt: The CCRIS database contains chemical records with carcinogenicity, mutagenicity, tumor promotion, and tumor inhibition test results. It was developed by the National Cancer Institute (NCI). Data are derived from studies cited in primary journals, current awareness tools, NCI reports, and other sources. Test results have been reviewed by experts in carcinogenesis and mutagenesis. CCRIS provides historical information from the years 1985 - 2011. It is no longer updated. […]
The source made the active and inactive calls. No rule for the calls is given here.
The reply should name one outcome from active, inactive

// param item: O=NN1CCCCC1 ; yields the recorded call
active

// param item: CCC1CCC(CCC(=O)[O-])C1.CCC1CCC(CCC(=O)[O-])CC1.[Cu+2] (centres undefined) ; yields the recorded call
inactive

// param item: CC1CCC(C(C)C)C(OC(=O)c2ccccc2N)C1 (centres undefined) ; yields the recorded call
inactive

// param item: Nc1nc2c(ncn2[C@@H]2C=C[C@H](CO)C2)c(=O)[nH]1 ; yields the recorded call
inactive

###

- Tested on: CCRIS mutagenicity, Ames/micronucleus/aberration tests
- assay_explanation: CCRIS mutagenicity studies
- experimental_setup: Test System: AMES SALMONELLA TYPHIMURIUM; Strain/Indicator: TA1538; Metabolic Activation: RAT, LIVER, S-9, AROCLOR 1254; Method: STANDARD PLATE
Active and inactive are the calls of the source. The rule behind the calls is not given here.
The reply should name one outcome from Y = active, N = inactive

// param item: OC[C@@H](O)[C@@H](O)[C@H](O)[C@H](O)CO ; yields the recorded call
N

// param item: O=C1c2cccc(O)c2C(=O)c2c(O)cc(CO)cc21 ; yields the recorded call
Y

// param item: CC(C)=CCC1=C(O)c2ccccc2C(=O)C1=O ; yields the recorded call
N

// param item: [O-]/[N+](=N\O)c1ccccc1 ; yields the recorded call
N

// param item: CCOCOCC ; yields the recorded call
N

// param item: Nc1ccc(N=Nc2ccc(N)cc2)cc1 ; yields the recorded call
Y

// param item: O=NO ; yields the recorded call
N

// param item: c1ccc2c(c1)-c1ccc3ccc4cccc5cc-2c1c3c45 ; yields the recorded call
Y

// param item: O=[N+]([O-])/C(Br)=C\c1ccccc1 ; yields the recorded call
N

// param item: OC(O)C(Cl)(Cl)Cl ; yields the recorded call
N

// param item: C/C=N/O ; yields the recorded call
N

// param item: N=c1ccc2nc3ccc(N)cc3sc-2c1 ; yields the recorded call
Y

// param item: O=C(O)/C=C/c1ccc(O)c(O)c1 ; yields the recorded call
N

// param item: Fc1ccccc1-c1ccccc1 ; yields the recorded call
N

// param item: Nc1nc2cc(Cl)c(Cl)cc2s1 ; yields the recorded call
N

// param item: CC(C)(C#N)C(C)(C)C#N ; yields the recorded call
N

// param item: CCNc1nc(Cl)nc(NC(C)C)n1 ; yields the recorded call
N

// param item: CCOC(=O)C1OC1c1ccccc1 (centres undefined) ; yields the recorded call
N

// param item: C[C@]12CC[C@@H]3c4ccc(O)cc4CC[C@H]3[C@@H]1CC[C@@H]2O ; yields the recorded call
N

// param item: O=S(O)S(=O)(=O)O ; yields the recorded call
N

// param item: c1cc2ccc3ccc4ccc5ccc6ccc1c1c2c3c4c5c61 ; yields the recorded call
Y

// param item: CCCCCCCCCC/C=C/C1CC(=O)OC1=O (centres undefined) ; yields the recorded call
N

// param item: Nc1nc2c(ccc3ncccc32)s1 ; yields the recorded call
Y

// param item: COc1cc(N=Nc2ccc(N(CCO)CCO)cc2)ccc1N=Nc1c(S(=O)(=O)O)cc2ccc(N)cc2c1O ; yields the recorded call
Y

// param item: CCOS(C)(=O)=O ; yields the recorded call
Y

// param item: Nc1ccc(-c2ccc(N)c(Cl)c2)cc1Cl ; yields the recorded call
Y

// param item: COc1cc2c(c(OC)c1OC)-c1ccc(OC)c(=O)cc1[C@@H](NC(C)=O)CC2 ; yields the recorded call
N

// param item: c1ccc2cc3cc4ccccc4cc3cc2c1 ; yields the recorded call
Y

// param item: Nc1cc(C(F)(F)F)ccc1Cl ; yields the recorded call
N

###

- Tested on: CCRIS mutagenicity, Ames/micronucleus/aberration tests
- assay_explanation: CCRIS mutagenicity studies
- experimental_setup: Test System: AMES SALMONELLA TYPHIMURIUM; Strain/Indicator: TA1535; Metabolic Activation: NONE; Method: PREINCUBATION
Calls of active or inactive are those of the source. No rule for the calls is given here.
The reply should name one outcome from active, inactive

// param item: O=C(O)c1ccccc1Cl ; yields the recorded call
inactive

// param item: Fc1c(F)c(Cl)c(F)c(Cl)c1F ; yields the recorded call
inactive

// param item: CCN(CC)C(=O)c1cccc(C)c1 ; yields the recorded call
inactive

// param item: FC(F)(F)C(Cl)Br (stereo not given) ; yields the recorded call
inactive

// param item: O=C(OC1CCCCC1)c1ccccc1C(=O)OC1CCCCC1 ; yields the recorded call
inactive

// param item: NC(=O)CCCCC(N)=O ; yields the recorded call
inactive

// param item: CCC(C)(C)C ; yields the recorded call
inactive

// param item: CCNc1cccc(O)c1 ; yields the recorded call
inactive

// param item: C=CC(=O)NC(C)(C)CC(C)=O ; yields the recorded call
inactive

// param item: CCOC(=O)C1OC1c1ccccc1 (stereo not given) ; yields the recorded call
inactive

// param item: CC(C)(C)N ; yields the recorded call
inactive

// param item: O=C(Oc1ccccc1)c1ccccc1O ; yields the recorded call
inactive

// param item: C=CCC1(C(C)C#CCC)C(=O)N=C(O)N(C)C1=O (stereo not given) ; yields the recorded call
inactive

// param item: C1CC2OC2CC1C1CO1 (stereo not given) ; yields the recorded call
active

// param item: CCOC(=O)C1OC1(C)c1ccccc1 (stereo not given) ; yields the recorded call
inactive

// param item: O=C(O)c1ccc(O)cc1 ; yields the recorded call
inactive

// param item: CCCCC(CC)COC(=O)c1cccc(C(=O)OCC(CC)CCCC)c1 (stereo not given) ; yields the recorded call
inactive

// param item: O=[N+]([O-])c1cc([As](=O)(O)O)ccc1O ; yields the recorded call
inactive

// param item: C=CC(=O)NCNC(=O)C=C ; yields the recorded call
inactive

// param item: OC(O)C(Cl)(Cl)Cl ; yields the recorded call
inactive

// param item: Nc1ccc(O)c(N)c1 ; yields the recorded call
inactive

// param item: CCCCOC(=O)c1ccccc1N ; yields the recorded call
inactive

// param item: C[CH2][Hg][S]c1ccccc1C(=O)O ; yields the recorded call
inactive

// param item: C#C[C@]1(O)CC[C@H]2[C@@H]3CCC4=CC(=O)CC[C@@H]4[C@H]3CC[C@@]21C ; yields the recorded call
inactive

// param item: O=C(O)c1cccc(Cl)c1 ; yields the recorded call
inactive

// param item: Nc1cc(C(=O)O)c(O)c(S(=O)(=O)O)c1 ; yields the recorded call
inactive

// param item: C1COC1 ; yields the recorded call
inactive

// param item: CN[C@@H]1[C@H](O[C@H]2[C@H](O[C@H]3[C@H](O)[C@@H](O)[C@H](N=C(N)N)[C@@H](O)[C@@H]3N=C(N)N)O[C@@H](C)[C@]2(O)C=O)O[C@@H](CO)[C@H](O)[C@H]1O ; yields the recorded call
inactive

// param item: Nc1ccc(Cc2ccc(N)cc2)cc1 ; yields the recorded call
inactive

// param item: CC(=O)OO ; yields the recorded call
inactive
